Below, each entry is listed alongside its reported TGI.
# Test system: KM12 colon
# run.description: NCI tumour cell line growth inhibition, 48 h
Where a SMILES comes first, the peptide text is derived from it. The star is where a group is joined. Cbz = O=C(OCc1ccccc1)*

compound: CC(=O)OC12C=CC(=O)N1c1ccccc1C(=O)O2 (centres undefined)
TGI: > 100 µM
--
compound: CCOC(=O)C(=[N+]=[N-])[Si](C)(C)C
TGI: > 100 µM
--
compound: Cn1cc(-c2csc(-c3c[nH]c4ccc(F)cc34)n2)c2cnccc21
TGI: 3.49 µM
--
compound: CC1CCC(C(C)C)C(OC(=O)NCn2cc(-c3ccccc3)nn2)C1 (centres undefined)
TGI: > 100 µM
--
compound: Cc1ccccc1N1C(=O)C2C=CC(n3[nH]c(=O)n(Cc4ccccc4)c3=O)CC2C1=O (centres undefined)
TGI: > 100 µM
--
compound: CO/N=C(\COc1ccc2c(c1)oc(=O)c1cc(OC)ccc12)c1ccc(OC)cc1
TGI: > 100 µM
--
compound: COC(=O)C1=C(C(=O)NNc2ccccc2)N(c2cccnc2Cl)C(c2ccccc2)=CC1c1ccccc1 (centres undefined)
TGI: > 100 µM
--
compound: CCn1c2ccccc2c2cc(NC(=O)Nc3ccc([N+](=O)[O-])cc3C)ccc21
TGI: 16.8 µM
--
compound: c1ccc(CCNc2ccccn2)nc1
TGI: > 100 µM
--
compound: COc1ccc2c(c1)C(=O)c1c-2c(N2CCN(C(=O)CNCCNCCO)CC2)nc2ccccc12
TGI: 5.79 µM
--
compound: CC1OC(OC2C(O)COC(OC3C(C)OC(OC4C(OC(=O)[C@]56CCC(C)(C)C[C@@H]5C5=CCC7[C@@]8(C)C[C@H](O)[C@H](OC9OC(CO)C(O)C(O)C9O)[C@@](C)(CO)[C@@H]8CC[C@@]7(C)[C@]5(C)CC6)OCC(O)C4O)C(O)C3OC3OCC(O)(CO)C3O)C2O)C(O)C(O)C1O (some centres undefined)
TGI: 52.4 µM
--
compound: O=C(O)CCC(NC(=O)OCc1ccccc1)C(=O)NC(Cc1cnc[nH]1)C(=O)O (stereo not drawn) (Cbz-Glu-His-OH; configuration not given here)
TGI: > 100 µM
--
compound: CC(=O)Oc1ccc2c(C)cc(=O)oc2c1OC(C)=O
TGI: > 100 µM
--
compound: CCCN1C(=O)N(CCC)C2C1NC(=S)N2/N=C/C=C/c1ccccc1OC (centres undefined)
TGI: > 100 µM
--
compound: NC(=O)C(C(N)=O)=C(O)C(=O)/C=C(\O)c1ccccc1
TGI: > 100 µM
--
compound: CCOC1OC(=O)c2cc3ccc4c(c3c(-c3ccc5c(c3)OCO5)c21)OCO4 (centres undefined)
TGI: > 100 µM
--
compound: COc1ccc2[nH]cc(C3(c4c[nH]c5ccc(OC)cc45)C(=O)Nc4ccc(F)cc43)c2c1
TGI: 6.96 µM
--
compound: C=CCCCCOc1ccccc1-c1cnc(OCCCCC=C)n1C
TGI: 13.1 µM
--
compound: Nc1ncnc2c1ncn2[C@@H]1C[C@@H]1CO
TGI: > 100 µM

* * *

# Test system: ACHN renal
# run.description: NCI tumour cell line growth inhibition, 48 h

molecule: COc1ccc(P2(=S)OC(C)(C)C(C)(C)O2)cc1
subject.of.test: ACHN renal
TGI: > 100 µM
--
molecule: Cn1nc(C(=O)N2CC(CCl)c3c2cc(N)c2ccccc32)cc1NC(=O)Nc1cc(C(=O)N2CC(CCl)c3c2cc(N)c2ccccc32)nn1C (stereo not drawn)
subject.of.test: ACHN renal
TGI: > 100 µM
--
molecule: CNCC#Cc1c(F)ccc2c1/C(=C/c1[nH]ccc1OC)C(=O)N2
subject.of.test: ACHN renal
TGI: 2.64 µM
--
molecule: O=C(CC1(O)C(=O)N(Cc2ccccc2)c2ccc(F)cc21)c1ccc(C(=O)NCC2CCC3(CC2)OOC2(CCCCC2)OO3)cc1 (stereo not drawn)
subject.of.test: ACHN renal
TGI: 0.363 µM
--
molecule: CCC(C)COC(=O)c1ccc(N=Cc2ccc(C=Nc3ccc(C(=O)OCC(C)CC)cc3)cc2)cc1 (stereo not drawn)
subject.of.test: ACHN renal
TGI: > 100 µM
--
molecule: CC1OC(OC2C(O)COC(OC3C(C)OC(OC4C(OC(=O)[C@]56CCC(C)(C)C[C@@H]5C5=CCC7[C@@]8(C)C[C@H](O)[C@H](OC9OC(CO)C(O)C(O)C9O)[C@@](C)(CO)[C@@H]8CC[C@@]7(C)[C@]5(C)CC6)OCC(O)C4O)C(O)C3OC3OCC(O)(CO)C3O)C2O)C(O)C(O)C1O (stereo partly drawn)
subject.of.test: ACHN renal
TGI: 34 µM
--
molecule: CN(CC(=O)O)c1ncc2c(n1)CCCC2
subject.of.test: ACHN renal
TGI: > 100 µM
--
molecule: Cc1nn(-c2ccc(Cl)cc2)c2nc3c(nc12)C(=O)c1ccccc1-3
subject.of.test: ACHN renal
TGI: > 100 µM
--
molecule: Cc1cc2oc(=N)c(C#N)c(C)c2cc1C
subject.of.test: ACHN renal
TGI: > 100 µM
--
molecule: Cn1cc(C2=C(c3cn(CCCCO)c4ccccc34)C(=O)NC2=O)c2ccccc21
subject.of.test: ACHN renal
TGI: > 23.4 µM
--
molecule: CC1CCC(C(C)C)C(OC(=O)NCn2cc(-c3ccccc3)nn2)C1 (stereo not drawn)
subject.of.test: ACHN renal
TGI: > 100 µM
--
molecule: Nc1c(C(=O)Nc2ccncc2)sc2nc3c(cc12)CCCCCCCC3
subject.of.test: ACHN renal
TGI: 1.6 µM
--
molecule: O=C1/C(=C/c2cccc(Cl)c2Cl)N=C(c2ccccc2)N1C1CC1
subject.of.test: ACHN renal
TGI: > 50 µM
--
molecule: CCOC(=O)c1nnc2c(C(=O)OCC)c3ccccc3n2c1N
subject.of.test: ACHN renal
TGI: > 100 µM
--
molecule: CN1C(=O)N(C)C2C1NN=c1s/c(=C\c3ccc(Cl)cc3Cl)c(=O)n12 (stereo not drawn)
subject.of.test: ACHN renal
TGI: > 100 µM
--
molecule: CN(C)CC[PH+](c1ccccc1)c1ccccc1.CN(C)CC[PH+](c1ccccc1)c1ccccc1.[Cl-].[Pd+2]
subject.of.test: ACHN renal
TGI: > 100 µM
--
molecule: Cc1c(N=Nc2ccc(Cl)cc2)c(-c2ccccc2)n(C2OC(CO)C(O)C(O)C2O)c(=S)c1C#N (stereo not drawn)
subject.of.test: ACHN renal
TGI: 31.1 µM
--
molecule: CO/N=C(\COc1ccc2c(c1)oc(=O)c1cc(OC)ccc12)c1ccc(OC)cc1
subject.of.test: ACHN renal
TGI: > 100 µM

* * *

Below, each entry is listed alongside its reported TGI.
# System: UACC-62 melanoma
# run.description: NCI tumour cell line growth inhibition, 48 h

compound: CC(=O)c1sc(Nc2nnc(-c3ccc(-c4nnc(Nc5nc(C)c(C(C)=O)s5)o4)cc3)o2)nc1C
TGI: > 100 µM
//
compound: COc1ccc(Nc2nnc(-c3cc(O)ccc3O)s2)cc1
TGI: 20.8 µM
//
compound: CC(C)Oc1ccc2cc(-c3nn(CC4CCNCC4)c4ncnc(N)c34)ccc2c1
TGI: 20.4 µM
//
compound: COc1ccc(NC(=O)/C(Cc2cc(=O)oc3cc(O)ccc23)=N\NC(C)(C)C)c(OC)c1
TGI: > 100 µM
//
compound: CC#CCOC(=O)c1ccccc1OC(C)=O
TGI: > 100 µM
//
compound: COC(=O)C1=C(C(=O)NNc2ccccc2)N(c2cccnc2Cl)C(c2ccccc2)=CC1c1ccccc1 (centres undefined)
TGI: > 100 µM
//
compound: O=C(Cn1c[n+](CC(=O)c2ccc(-c3ccccc3)cc2)c2ccccc21)Nc1cccc2cccnc12
TGI: 2.84 µM
//
compound: C#C[C@]1(O)CCC2C3CCc4cc(O)ccc4C3CC[C@@]21C (some centres undefined)
TGI: 22.8 µM
//
compound: CCOC(=O)CN1C(=O)c2ccc(NC(=O)C(=O)O)cc2S1(=O)=O
TGI: > 100 µM
//
compound: CCOC1OC(=O)c2cc3ccc4c(c3c(-c3ccc5c(c3)OCO5)c21)OCO4 (centres undefined)
TGI: > 59.2 µM
//
compound: CN1CCN(C(=S)N2CCN(C)CC2)CC1
TGI: > 100 µM
//
compound: COc1cc2c(c(OC)c1OC)-c1ccc(SC)c(=O)cc1C(NC=O)CC2 (centres undefined)
TGI: > 100 µM
//
compound: C/C(Cc1ccccc1)=N\NC(N)=S
TGI: > 100 µM
//
compound: CSc1nc(Nc2cccc(C(F)(F)F)c2)c2c(N)nn(C)c2n1
TGI: > 100 µM
//
compound: CN=C(N=Nc1c(O)[nH]c2ccccc12)SCC(=O)c1ccc(Br)cc1
TGI: > 100 µM
//
compound: Cc1ccc(NC(=O)CC2CC2)cc1-c1ccc(C(=O)NCC2CC2)cc1
TGI: > 25 µM
//
compound: CN(C)CCC(=O)c1ccccc1
TGI: > 68.1 µM
//
compound: CC1OC(OC2C(O)COC(OC3C(C)OC(OC4C(OC(=O)[C@]56CCC(C)(C)C[C@@H]5C5=CCC7[C@@]8(C)C[C@H](O)[C@H](OC9OC(CO)C(O)C(O)C9O)[C@@](C)(CO)[C@@H]8CC[C@@]7(C)[C@]5(C)CC6)OCC(O)C4O)C(O)C3OC3OCC(O)(CO)C3O)C2O)C(O)C(O)C1O (some centres undefined)
TGI: 31.6 µM
//
compound: COc1cc2c(cc1OCCCNC(=O)c1cccc3c(=O)c4ccccc4[nH]c13)N=C[C@@H]1CCCN1C2=O
TGI: < 0.01 µM
